experiment: Therapeutic index, ratio of IC50 for human HeLa cells to EC50 for Giardia lamblia trophozoites isolates; assay type: cell-based; conditions: read-out: Ratio IC50/EC50
MEASURED_QUANTITY: selectivity ratio

Solved entries (count: 2):
[[record]]
item_smiles = "Cn1c([N+](=O)[O-])cnc1/C=C/c1ccccc1Cl"
measured_quantity = "selectivity ratio"
meas_value = "> 1380"

[[record]]
item_smiles = "Cc1ccc(CCc2ncc([N+](=O)[O-])n2C)cc1"
measured_quantity = "selectivity ratio"
meas_value = "> 357"


With those in mind, consider the next compound.
*Q* Data request, read-out selectivity ratio, for Cn1c([N+](=O)[O-])cnc1/C=C/c1ccc(Cl)cc1Cl
*A* > 427
